Target: NagB1
Construct: recombinant without Met1–Ser21 signal peptide and Cys22–Phe48 (starts at Thr49), C-terminal LEHHHHHH
Assay: SPR (Biacore X100), crystal structure at […] Å, DSF
Assay type: binding, Paenibacillus sp. FPU-7
value.type: Kd (nM)
Number in nM, nothing else.

Enquiry: Data request, read-out Kd, for CC(=O)N[C@H]1[C@H](O[C@H]2[C@H](O)[C@@H](NC(C)=O)C(O)O[C@@H]2CO)O[C@H](CO)[C@@H](O)[C@@H]1O (stereo partly shown) [(GlcNAc)2, N,N′-diacetylchitobiose]
Return: 173

----------
Biological target: NagB2
Construct: recombinant without signal peptide (Met1 to Ala20), C-terminal LEHHHHHH
Assay: SPR (Biacore X100), crystal structure at […] Å, DSF
Type: binding, Paenibacillus sp. FPU-7
value.type: Kd (nM)
Hi! Could you send only the number? It should be in nM, unit omitted.

Enquiry: Give the reported Kd for CC(=O)N[C@H]1[C@H](O[C@H]2[C@H](O)[C@@H](NC(C)=O)C(O)O[C@@H]2CO)O[C@H](CO)[C@@H](O)[C@@H]1O (stereo partly shown) [(GlcNAc)2, N,N′-diacetylchitobiose] (system: NagB2).
Return: 190
